Value source: ChEMBL document CHEMBL3621147

# Subject of test: Histone deacetylase 2 (Homo sapiens, UniProt Q92769)
# Sequence (Q92769 whole entry): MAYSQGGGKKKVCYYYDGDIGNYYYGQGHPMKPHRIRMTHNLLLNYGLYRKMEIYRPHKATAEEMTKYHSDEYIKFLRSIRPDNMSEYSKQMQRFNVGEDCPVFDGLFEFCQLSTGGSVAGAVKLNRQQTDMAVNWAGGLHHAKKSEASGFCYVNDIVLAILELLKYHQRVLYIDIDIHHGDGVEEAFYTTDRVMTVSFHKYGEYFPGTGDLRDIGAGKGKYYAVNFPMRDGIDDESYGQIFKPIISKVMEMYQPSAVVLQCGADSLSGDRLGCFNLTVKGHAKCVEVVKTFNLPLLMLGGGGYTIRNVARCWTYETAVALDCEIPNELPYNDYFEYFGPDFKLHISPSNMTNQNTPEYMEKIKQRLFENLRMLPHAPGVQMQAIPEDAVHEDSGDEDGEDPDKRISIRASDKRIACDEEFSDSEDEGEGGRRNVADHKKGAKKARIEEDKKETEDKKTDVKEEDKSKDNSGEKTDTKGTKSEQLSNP
# Experiment: Inhibition of human recombinant HDAC2 using Ac-Leu-Gly-Lys (Ac)-AMC substrate incubated for 30 mins by fluorescence assay
Measurement type: Ki (nM)
Provide the reading as a plain figure in nM.

Molecule | Subject of test | Measured value
CC(C)[C@H]1NC(=O)[C@@H](C)[C@@H](C/C=C\CCC(=O)O)NC(=O)[C@@H](Cc2ccc(O)cc2)NC(=O)[C@@H](C)NC1=O [AZUMAMIDE C] | Histone deacetylase 2 (Homo sapiens, UniProt Q92769) | 10

(Q) I have this molecule here, CCC[C@H]1NC(=O)[C@@H](Cc2ccc(O)cc2)NC(=O)[C@@H](C)NC(=O)[C@@H](C(C)C)NC(=O)[C@H]1C , and I need its recorded Ki.
(A) 1400
